test system: ATP; assay: switch fluorescence ratio, 500 uM ATP over buffer (Cy3 cluster intensity, sum of 5 cycles each) (fold (ratio)); higher = stronger signal-on switching upon ATP binding; sequences stand for … in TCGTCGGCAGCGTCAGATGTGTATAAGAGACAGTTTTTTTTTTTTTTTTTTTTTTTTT…TC; conditions: aptamer strand: ATP DNA aptamer (quencher-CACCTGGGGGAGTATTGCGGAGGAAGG + anchor), 100 nM annealed; ATP concentration: 500 uM;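 further: ATP exposure 15 min at 22 °C before imaging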
Below, each of the sequences is paired with its reported switch fluorescence ratio value.

Take a look at these entries with their results.
AGTGTGGCCA
1.02
CGTGATGGGG
1.04

stdin: What does the record list as switch fluorescence ratio for `GGCAATCCCA` ?
stdout: 1.03

stdin: What does the record list as switch fluorescence ratio for `GTTTTCTATG` ?
stdout: 1

stdin: What does the record list as switch fluorescence ratio for `TTGAAGCGGC` ?
stdout: 1.59

stdin: What does the record list as switch fluorescence ratio for `GAGAAATTCC` ?
stdout: 1.07

stdin: What does the record list as switch fluorescence ratio for `GGTGTTTAAG` ?
stdout: 0.972

stdin: What does the record list as switch fluorescence ratio for `AGAATTTGTT` ?
stdout: 1

stdin: What does the record list as switch fluorescence ratio for `GGGGCTCATA` ?
stdout: 0.988

stdin: What does the record list as switch fluorescence ratio for `TGAATGACGT` ?
stdout: 0.972

stdin: What does the record list as switch fluorescence ratio for `TGCGCCGGGT` ?
stdout: 1.12

stdin: What does the record list as switch fluorescence ratio for `GGGTTTTAAG` ?
stdout: 1

stdin: What does the record list as switch fluorescence ratio for `CTAGGACAGC` ?
stdout: 0.994

stdin: What does the record list as switch fluorescence ratio for `ATTTTATGCC` ?
stdout: 1.01

stdin: What does the record list as switch fluorescence ratio for `TGCAACCTTG` ?
stdout: 1.04

stdin: What does the record list as switch fluorescence ratio for `TTTTTAAACA` ?
stdout: 1.01

stdin: What does the record list as switch fluorescence ratio for `ATGGGGGAA` ?
stdout: 0.997

###

test system: ATP; assay: switch fluorescence ratio, 500 uM ATP over buffer (Cy3 cluster intensity, sum of 5 cycles each) (fold (ratio)); higher = stronger signal-on switching upon ATP binding; sequences stand for … in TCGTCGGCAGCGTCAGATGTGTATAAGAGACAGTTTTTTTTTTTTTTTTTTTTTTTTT…TC; settings: aptamer strand: ATP DNA aptamer (quencher-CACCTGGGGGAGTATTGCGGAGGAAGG + anchor), 100 nM annealed; ATP concentration: 500 uM;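 further: ATP exposure 15 min at 22 °C before imaging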
endpoint: switch fluorescence ratio

Take a look at these entries with their results.
AAGTTAAAAG
0.975
ATTGAGAGAT
1.03
CGGGGGACTA
0.985
GTGCGCGGCC
1.01
TTCATATCAT
1

stdin: What does the record list as switch fluorescence ratio for `TTAGGGGATG` ?
stdout: 1.03

stdin: What does the record list as switch fluorescence ratio for `TAAATGATTT` ?
stdout: 1.01

stdin: What does the record list as switch fluorescence ratio for `TTTTTGTATC` ?
stdout: 0.968

stdin: What does the record list as switch fluorescence ratio for `TCTCAAATTT` ?
stdout: 0.975

stdin: What does the record list as switch fluorescence ratio for `ATGTAGTTGT` ?
stdout: 0.979

stdin: What does the record list as switch fluorescence ratio for `ATAGTTATTT` ?
stdout: 0.989

stdin: What does the record list as switch fluorescence ratio for `GGGTTGAACG` ?
stdout: 0.967

stdin: What does the record list as switch fluorescence ratio for `GACACACAAG` ?
stdout: 1.14

stdin: What does the record list as switch fluorescence ratio for `TCGTCGATTC` ?
stdout: 1.12

stdin: What does the record list as switch fluorescence ratio for `ATGTTAAGAG` ?
stdout: 0.977

stdin: What does the record list as switch fluorescence ratio for `AGAGGCCGAT` ?
stdout: 1.02

stdin: What does the record list as switch fluorescence ratio for `TTGAGTGTTG` ?
stdout: 1.01

stdin: What does the record list as switch fluorescence ratio for `TCGGGGCCGA` ?
stdout: 0.969

stdin: What does the record list as switch fluorescence ratio for `TTTCAAATTG` ?
stdout: 0.973

stdin: What does the record list as switch fluorescence ratio for `TGGGGTTCGA` ?
stdout: 0.975
